# Target Or System: HDAC1 (Homo sapiens, UniProt Q13547)
# Construct: purchased Enzolifesciences BML-AK511
# Sequence (Q13547 whole entry): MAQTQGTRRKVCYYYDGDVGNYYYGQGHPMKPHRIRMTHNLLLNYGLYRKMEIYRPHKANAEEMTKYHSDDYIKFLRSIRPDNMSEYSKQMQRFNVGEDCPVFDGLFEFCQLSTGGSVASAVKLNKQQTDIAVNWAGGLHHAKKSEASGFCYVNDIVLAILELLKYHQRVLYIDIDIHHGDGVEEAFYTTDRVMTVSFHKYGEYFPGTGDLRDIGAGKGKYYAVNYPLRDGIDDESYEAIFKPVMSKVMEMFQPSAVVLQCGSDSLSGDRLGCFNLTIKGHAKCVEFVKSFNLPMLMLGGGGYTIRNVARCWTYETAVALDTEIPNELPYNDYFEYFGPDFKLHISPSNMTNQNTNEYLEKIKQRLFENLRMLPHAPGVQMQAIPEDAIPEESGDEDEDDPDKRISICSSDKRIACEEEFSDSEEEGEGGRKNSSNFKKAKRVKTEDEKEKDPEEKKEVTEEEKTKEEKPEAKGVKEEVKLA
# Assay Remarks: HDAC1 enzyme inhibition, HDAC1 fluorimetric drug discovery assay kit
# Assay type: biochemical
# Assay Conditions: 100-10000 nM tested, 37° C. 60 minutes, fluorescence; read-out: HDAC1 (μM), ability to inhibit the activity of HDAC enzyme
Experimental Readout: IC50 (µM)
State just the number; it will be interpreted in µM.

Data request: Look up and state reported IC50 for O=C(CCCCCCNC(=O)N1CCN(C(c2ccc(Cl)cc2)c2ccc(Cl)cc2)CC1)NO
Data returned: 3.96

Data request: Look up and state reported IC50 for O=C(CCCCCCNC(=O)N1CCC(N(c2ccccc2)c2ccc(F)cc2)CC1)NO
Data returned: 0.886

Data request: Look up and state reported IC50 for O=C(CCCCCNC(=O)N1CCN(C(c2ccccc2)c2ccccc2)CC1)NO
Data returned: 0.159

Data request: Look up and state reported IC50 for CC(c1ccccc1)N1CCN(C(=O)NCCCCCCC(=O)NO)CC1 (centres unmarked)
Data returned: 0.72

Data request: Look up and state reported IC50 for O=C(CCCCCCNS(=O)(=O)N1CCC(C(O)(c2ccccc2)c2ccccc2)CC1)NO
Data returned: 1.19

Data request: Look up and state reported IC50 for O=C(CCCCCCNC(=O)N1CCN(C(c2ccccn2)c2ccccn2)CC1)NO
Data returned: 0.71

Data request: Look up and state reported IC50 for O=C(CCCCCCNC(=O)N1CCN(C(c2cccc(F)c2)c2cccc(F)c2)CC1)NO
Data returned: 0.729

Data request: Look up and state reported IC50 for O=C(CCCCCCNC(=O)N1CCC(C(O)(c2ccccc2)c2ccccc2)CC1)NO
Data returned: 4.09

---

# Target Or System: HDAC6 human recombinant (Homo sapiens, UniProt Q9UBN7)
# Construct: purchased Calbiochem 382180
# Sequence (Q9UBN7 whole entry): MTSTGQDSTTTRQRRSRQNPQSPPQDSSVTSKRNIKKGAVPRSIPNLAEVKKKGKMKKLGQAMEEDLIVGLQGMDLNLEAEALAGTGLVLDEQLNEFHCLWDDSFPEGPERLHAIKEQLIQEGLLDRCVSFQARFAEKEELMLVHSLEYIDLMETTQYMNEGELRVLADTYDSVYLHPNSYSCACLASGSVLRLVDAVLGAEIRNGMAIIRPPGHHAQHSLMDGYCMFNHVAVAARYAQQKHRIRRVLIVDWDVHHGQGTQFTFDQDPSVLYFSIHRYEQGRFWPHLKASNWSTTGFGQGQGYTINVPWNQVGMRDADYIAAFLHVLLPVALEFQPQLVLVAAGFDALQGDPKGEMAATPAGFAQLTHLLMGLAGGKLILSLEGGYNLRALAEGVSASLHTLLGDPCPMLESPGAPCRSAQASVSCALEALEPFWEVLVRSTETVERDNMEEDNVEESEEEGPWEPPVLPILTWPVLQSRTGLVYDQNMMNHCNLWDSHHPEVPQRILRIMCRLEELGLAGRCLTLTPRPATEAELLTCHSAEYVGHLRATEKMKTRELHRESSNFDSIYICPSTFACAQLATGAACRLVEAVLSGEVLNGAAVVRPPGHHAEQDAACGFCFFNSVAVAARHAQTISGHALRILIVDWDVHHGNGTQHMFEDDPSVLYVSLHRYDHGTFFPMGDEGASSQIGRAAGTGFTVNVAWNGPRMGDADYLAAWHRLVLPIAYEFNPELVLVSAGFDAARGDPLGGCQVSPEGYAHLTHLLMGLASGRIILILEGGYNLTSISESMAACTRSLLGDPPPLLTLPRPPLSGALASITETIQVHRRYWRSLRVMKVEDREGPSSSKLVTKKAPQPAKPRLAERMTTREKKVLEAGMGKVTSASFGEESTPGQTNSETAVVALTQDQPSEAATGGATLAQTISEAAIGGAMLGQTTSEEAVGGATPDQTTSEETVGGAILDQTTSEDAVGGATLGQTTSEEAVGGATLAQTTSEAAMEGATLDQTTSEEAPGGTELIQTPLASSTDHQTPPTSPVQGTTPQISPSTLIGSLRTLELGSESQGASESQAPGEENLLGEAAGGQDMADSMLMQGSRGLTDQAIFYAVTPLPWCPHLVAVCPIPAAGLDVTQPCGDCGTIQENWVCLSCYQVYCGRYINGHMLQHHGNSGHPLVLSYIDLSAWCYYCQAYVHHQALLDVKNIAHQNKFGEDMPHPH
# Assay Remarks: HDAC6 enzyme inhibition, fluorimetric assay
# Format: biochemical
# Assay Conditions: 0.1-1000 nM tested, 37° C. 60 minutes, fluorescence; read-out: HDAC6 (μM), ability to inhibit the activity of HDAC enzyme
Each record is given t if its reported IC50 is strictly below 0.02 µM. Records at or above 0.02 µM are given f.

Data request: Quick check: does O=C(CCCCCCNC(=O)N1CCC(C(O)(c2ccccc2)c2ccccc2)CC1)NO have IC50 under 0.02 µM?
Data returned: f

Data request: Quick check: does O=C(CCCCCNC(=O)N1CCN(C(c2ccccc2)c2ccccc2)CC1)NO have IC50 under 0.02 µM?
Data returned: f

Data request: Quick check: does O=C(CCCCCNC(=O)C1CCN(C(c2ccccc2)c2ccccc2)CC1)NO have IC50 under 0.02 µM?
Data returned: f

Data request: Quick check: does CC(c1ccccc1)N1CCC(C(=O)NCCCCCCC(=O)NO)CC1 (centres unmarked) have IC50 under 0.02 µM?
Data returned: t

Data request: Quick check: does C[C@@H]1CN(C(c2ccccc2)c2ccccc2)CCN1C(=O)NCCCCCCC(=O)NO have IC50 under 0.02 µM?
Data returned: f

Data request: Quick check: does O=C(CCCCCCNC(=O)N1CCC(C(F)(c2ccccc2)c2ccccc2)CC1)NO have IC50 under 0.02 µM?
Data returned: f

Data request: Quick check: does O=C(CCCCCCNC(=O)N1CCC(N(c2ccccc2)c2ccc(F)cc2)CC1)NO have IC50 under 0.02 µM?
Data returned: f

Data request: Quick check: does O=C(CCCCCCNC(=O)N1CCN(C(c2ccccc2)c2ccccc2)CC1)NO have IC50 under 0.02 µM?
Data returned: t
